Quick list: pKd per entry.
Target: recombinant human BTLA (human, UniProt Q7Z6A9 31-157, limits assumed)
Experiment: Bio-Layer Interferometry (Octet), antibody captured by anti-human-Fc (AHC), BTLA in solution, 1:1 fit
pKd: −log10 of the molar value.
metric: pKd

[[record]]
binder = "anti-BTLA antibody 16-H16A (antibody, V domains shown) VH: QLQLQESGPGLVKPSETLSLTCTVSGDSISSSGYYWGWIRQPPGKGLEWIGSIYYSGSTHYNPSLKSRVTISVDSSKSQFSLKLSSVTAADTAVYCCARHKVDSSGWPLDYWGQGTLVTVSS VL: EIVMTQSPATLSLSPGERATLSCRASQSISSSCLSWYQQKPGQAPRLLIYDTSTRATGIPARFSGSGSGTDFTLTISSLQPEDFAVYYCQQDYNLPLTFGGGTKVEIK"
quantitative_readout = 7.86

[[record]]
binder = "anti-BTLA antibody 12-I8A (antibody, V domains shown, also called 12-IBA) VH: QVQLVESGGGVVQPGRSLRLSCAASGFTFSNYGMHWVRQAPGKGLEWVAVIWYNGSNKYYADSVKGRFTISRDNSKNTLYLQMNSLRAEDTAVYYCARDDVVRYFDWPLDYWGQGTLVTVSS VL: AIQMTQSPSSLSASVGDRVTITCRASQGIRNDLGWYQQKPGKAPKVLIYAASSLQSGVPSRFSGSGSGTDFTLTISSLQPEDFATYYCLQDYNYPWTFGQGTKVEIK"
quantitative_readout = 7.60

[[record]]
binder = "anti-BTLA antibody 16-I20A (antibody, V domains shown, also called 16420A) VH: QVQLQESGPGLVKPSETLSLTCTVSGGSISYYYWSWIRQPPGTGLEWIGYIYYSGSTKYNPSLKRRVTISVDTSKNQFSLKLSSVTAADTAVYYCARIRGDSYGWDFDYWGQGTLVTVSS VL: EIVMTQSPATLSLSPGERATLSCRASQSISNNYLFWYQQKPGQAPRLLIYGASTRATGIPARFSGSGSGTDFTLTISSLQPEDFAVYYCQQDYNFPLTFGGGTKVEIK"
quantitative_readout = 7.83

[[record]]
binder = "anti-BTLA antibody 13-F7A (antibody, V domains shown) VH: EVQLLESGGGLVQPGGSLRLSCAASGFTSSSYGMSWVRQAPGKGLEWVSGISGSGGGTYYADSVKGRFTISRDNSKNTLYLQMNSLRAEDTAVYYCAKGDYYGSGSYPLFDYWGQGTLVTVSS VL: AIQLTQSPSSLSASVGDRVTITCRASQDISSALAWYQQKPGKAPKLLISDASSLESGVPSRFSGSGSGTDFTLTISSLQPEDFATFYCQQFNNYPPTFGPGTKVDIK"
quantitative_readout = 8.27


All figures here come from patent US20200325230A1.
